Taken from patent US9745348B2.

We begin with a simple list: items and their reported viability at 48 h, 25 µM.
assayOverview: MTT viability of fibroblasts over three days
Assay type: cell-based, human
setupConditions: human, adult fibroblasts (HDFa cells)
Where no end group is shown, it is not given here.
testReadout: viability at 48 h, 25 µM

>>> result("GLLKKLLKKLLKKL-NH2 [GL, G(LLKK)3 L-NH2]")
"88%"
>>> result("GIIKKIIKKI-NH2 [Helix G2, G(IIKK)2 I-NH2]")
"90%"
>>> result("GIIKKIIKKIIKKI-NH2 [Helix G3, G(IIKK)3 I-NH2]")
"85%"
>>> result("GKIKKIIKKIIKII-NH2 [GKI, GKI(KKII)2 KII-NH2]")
"81%"
>>> result("GIIKKIIKKIIKKIIKKI-NH2 [Helix G4, G(IIKK)4 I-NH2]")
"81%"
>>> result("GIKKKIIKKIIKII-NH2 [GIK, GIK(KKII)2 KII-NH2]")
"93%"

----------
assayOverview: MTT viability of fibroblasts over three days
Format: cell-based, human
setupConditions: human, adult fibroblasts (HDFa cells)
Where no end group is shown, it is not given here.
testReadout: viability at 48 h, 5 µM (%)

>>> numericreadout("GIIKKIIKKIIKKI-NH2 [Helix G3, G(IIKK)3 I-NH2]")
92
>>> numericreadout("GIKKKIIKKIIKII-NH2 [GIK, GIK(KKII)2 KII-NH2]")
95
>>> numericreadout("GLLKKLLKKLLKKL-NH2 [GL, G(LLKK)3 L-NH2]")
90
>>> numericreadout("GIIKKIIKKIIKKIIKKI-NH2 [Helix G4, G(IIKK)4 I-NH2]")
84
>>> numericreadout("GIIKKIIKKI-NH2 [Helix G2, G(IIKK)2 I-NH2]")
96
>>> numericreadout("GKIKKIIKKIIKII-NH2 [GKI, GKI(KKII)2 KII-NH2]")
82

----------
assayOverview: MTT viability of fibroblasts over three days
Assay type: cell-based, human
setupConditions: human, adult fibroblasts (HDFa cells)
Protocol: MTT assay: Cell viability and proliferation is widely assessed by the MTT assay as already described previously. The fibroblasts cells, Neonatal (HDFn) and Adult (HDFa), were both grown until greater than 80% confluent. […] After 24 hour incubation the culture medium was replaced with fresh medium containing an appropriate amount of the peptide for investigation. […]
Where a SMILES comes first, the peptide text is derived from it. [ ]: non-standard residue; d: D form. Orn = NCCC[C@H](N)C(=O)O
testReadout: viability at 24 h, 100 µM (%)

>>> numericreadout("CC[C@H](C)[C@H](NC(=O)[C@H](CCCN)NC(=O)[C@H](CCCN)NC(=O)[C@@H](NC(=O)[C@@H](NC(=O)[C@H](CCCN)NC(=O)[C@H](CCCN)NC(=O)[C@@H](NC(=O)[C@@H](NC(=O)[C@H](CCCN)NC(=O)[C@H](CCCN)NC(=O)[C@@H](NC(=O)[C@@H](NC(=O)CN)[C@@H](C)CC)[C@@H](C)CC)[C@@H](C)CC)[C@@H](C)CC)[C@@H](C)CC)[C@@H](C)CC)C(N)=O [GO, G(IIOO)3 I-NH2] (H-GII[Orn][Orn]II[Orn][Orn]II[Orn][Orn]I-NH2)")
88

----------
assayOverview: in vitro
Type: cell-based
setupConditions: human, neonatal fibroblasts (HDFn cells)
Where a SMILES comes first, the peptide text is derived from it. [ ]: non-standard residue; d: D form. Orn = NCCC[C@H](N)C(=O)O
testReadout: viability at 72 h, 100 µM (%)

>>> numericreadout("CC[C@H](C)[C@H](NC(=O)[C@H](CCCN)NC(=O)[C@H](CCCN)NC(=O)[C@@H](NC(=O)[C@@H](NC(=O)[C@H](CCCN)NC(=O)[C@H](CCCN)NC(=O)[C@@H](NC(=O)[C@@H](NC(=O)[C@H](CCCN)NC(=O)[C@H](CCCN)NC(=O)[C@@H](NC(=O)[C@@H](NC(=O)CN)[C@@H](C)CC)[C@@H](C)CC)[C@@H](C)CC)[C@@H](C)CC)[C@@H](C)CC)[C@@H](C)CC)C(N)=O [GO, G(IIOO)3 I-NH2] (H-GII[Orn][Orn]II[Orn][Orn]II[Orn][Orn]I-NH2)")
65

----------
assayOverview: MTT viability of fibroblasts over three days
Assay type: cell-based, human
setupConditions: human, adult fibroblasts (HDFa cells)
Where no end group is shown, it is not given here.
testReadout: viability at 48 h, 100 µM (%)

>>> numericreadout("GKIKKIIKKIIKII-NH2 [GKI, GKI(KKII)2 KII-NH2]")
75
>>> numericreadout("GLLKKLLKKLLKKL-NH2 [GL, G(LLKK)3 L-NH2]")
57
>>> numericreadout("GIKKKIIKKIIKII-NH2 [GIK, GIK(KKII)2 KII-NH2]")
74
>>> numericreadout("GIIKKIIKKI-NH2 [Helix G2, G(IIKK)2 I-NH2]")
88
>>> numericreadout("GIIKKIIKKIIKKI-NH2 [Helix G3, G(IIKK)3 I-NH2]")
75
>>> numericreadout("GIIKKIIKKIIKKIIKKI-NH2 [Helix G4, G(IIKK)4 I-NH2]")
70

----------
assayOverview: in vitro
Format: cell-based
setupConditions: human, neonatal fibroblasts (HDFn cells)
Where a SMILES comes first, the peptide text is derived from it. [ ]: non-standard residue; d: D form. Orn = NCCC[C@H](N)C(=O)O
testReadout: viability at 48 h, 50 µM (%)

>>> numericreadout("CC[C@H](C)[C@H](NC(=O)[C@H](CCCN)NC(=O)[C@H](CCCN)NC(=O)[C@@H](NC(=O)[C@@H](NC(=O)[C@H](CCCN)NC(=O)[C@H](CCCN)NC(=O)[C@@H](NC(=O)[C@@H](NC(=O)[C@H](CCCN)NC(=O)[C@H](CCCN)NC(=O)[C@@H](NC(=O)[C@@H](NC(=O)CN)[C@@H](C)CC)[C@@H](C)CC)[C@@H](C)CC)[C@@H](C)CC)[C@@H](C)CC)[C@@H](C)CC)C(N)=O [GO, G(IIOO)3 I-NH2] (H-GII[Orn][Orn]II[Orn][Orn]II[Orn][Orn]I-NH2)")
81

----------
assayOverview: MTT viability of fibroblasts over three days
Assay type: cell-based, human
setupConditions: human, adult fibroblasts (HDFa cells)
Where no end group is shown, it is not given here.
testReadout: viability at 72 h, 5 µM (%)

>>> numericreadout("GIKKKIIKKIIKII-NH2 [GIK, GIK(KKII)2 KII-NH2]")
91
>>> numericreadout("GKIKKIIKKIIKII-NH2 [GKI, GKI(KKII)2 KII-NH2]")
81
>>> numericreadout("GIIKKIIKKI-NH2 [Helix G2, G(IIKK)2 I-NH2]")
95
>>> numericreadout("GLLKKLLKKLLKKL-NH2 [GL, G(LLKK)3 L-NH2]")
87
>>> numericreadout("GIIKKIIKKIIKKI-NH2 [Helix G3, G(IIKK)3 I-NH2]")
81
>>> numericreadout("GIIKKIIKKIIKKIIKKI-NH2 [Helix G4, G(IIKK)4 I-NH2]")
81

----------
assayOverview: MTT viability of fibroblasts over three days
Type: cell-based, human
setupConditions: human, adult fibroblasts (HDFa cells)
Where no end group is shown, it is not given here.
testReadout: viability at 24 h, 25 µM (%)

>>> numericreadout("GIKKKIIKKIIKII-NH2 [GIK, GIK(KKII)2 KII-NH2]")
92
>>> numericreadout("GLLKKLLKKLLKKL-NH2 [GL, G(LLKK)3 L-NH2]")
90
>>> numericreadout("GIIKKIIKKIIKKI-NH2 [Helix G3, G(IIKK)3 I-NH2]")
88

----------
assayOverview: MTT viability of fibroblasts over three days
Assay type: cell-based, human
setupConditions: human, adult fibroblasts (HDFa cells)
Where no end group is shown, it is not given here.
testReadout: viability at 48 h, 50 µM (%)

>>> numericreadout("GKIKKIIKKIIKII-NH2 [GKI, GKI(KKII)2 KII-NH2]")
80
>>> numericreadout("GIIKKIIKKIIKKIIKKI-NH2 [Helix G4, G(IIKK)4 I-NH2]")
78
>>> numericreadout("GIKKKIIKKIIKII-NH2 [GIK, GIK(KKII)2 KII-NH2]")
78
